Entries and their measured fraction unbound at 3 h, 2 µM follow.
- assay_method_text: in vitro
- condition_details: mouse, plasma, mouse plasma protein binding, fraction bound (Fb)
property: fraction unbound at 3 h, 2 µM

[[record]]
compound = "CC(C)(C)[C@H](NC(=O)C(F)(F)F)C(=O)N1C[C@H]2[C@@H]([C@H]1C(=O)N[C@@H](C[C@@H]1CCNC1=O)C(=O)COc1c(F)c(F)c(CO)c(F)c1F)C2(C)C"
test_value = 0.0355

[[record]]
compound = "COc1cccc2[nH]c(C(=O)N[C@@H](Cc3cccc(F)c3)C(=O)N[C@@H](C[C@@H]3CCNC3=O)C(=O)COc3c(F)c(F)c(C(C)(C)O)c(F)c3F)cc12"
test_value = 0.0105

[[record]]
compound = "CC(C)(O)c1c(F)c(F)c(OCC(=O)[C@H](C[C@@H]2CCNC2=O)NC(=O)[C@@H]2[C@@H]3[C@H](CN2C(=O)[C@@H](NC(=O)C(F)(F)F)C(C)(C)C)C3(C)C)c(F)c1F"
test_value = 0.0076

[[record]]
compound = "COc1cccc2[nH]c(C(=O)N[C@@H](Cc3cccc(F)c3)C(=O)N[C@@H](C[C@@H]3CCNC3=O)C(=O)COc3c(F)c(F)c(C(C)O)c(F)c3F)cc12 (stereo partly shown)"
test_value = 0.0083


----------
- target_under_test: human cathepsin L (hCTSL) (Homo sapiens, UniProt P07711)
- Construct: purchased R&D Systems
- Sequence (P07711 114-333): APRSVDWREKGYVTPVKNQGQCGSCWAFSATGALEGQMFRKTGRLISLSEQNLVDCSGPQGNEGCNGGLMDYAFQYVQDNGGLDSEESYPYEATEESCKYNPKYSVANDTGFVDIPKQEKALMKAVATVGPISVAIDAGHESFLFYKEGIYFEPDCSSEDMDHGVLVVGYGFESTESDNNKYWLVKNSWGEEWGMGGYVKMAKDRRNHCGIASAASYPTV
- assay_method_text: hCTSL biochemical assay
This section presents compounds with their documented hCTSL biochemical assay pIC50 values.
property: hCTSL biochemical assay pIC50

[[record]]
compound = "CCCCCCCCCCCCCCCC(=O)N[C@@H](Cc1cccc(F)c1)C(=O)N[C@@H](C[C@@H]1CCNC1=O)C(=O)COc1c(F)c(F)c(CO)c(F)c1F [compound 4]"
target_under_test = "human cathepsin L (hCTSL) (Homo sapiens, UniProt P07711)"
property = "hCTSL biochemical assay pIC50"
bound_type = "<"
test_value = 4.30

[[record]]
compound = "CC(C)(C)[C@H](NC(=O)C(F)(F)F)C(=O)N1C[C@H]2[C@@H]([C@H]1C(=O)N[C@@H](C[C@@H]1CCNC1=O)C(=O)COc1c(F)c(F)c(CO)c(F)c1F)C2(C)C [compound 7]"
target_under_test = "human cathepsin L (hCTSL) (Homo sapiens, UniProt P07711)"
property = "hCTSL biochemical assay pIC50"
bound_type = "<"
test_value = 4.30

[[record]]
compound = "COc1cccc2[nH]c(C(=O)N[C@@H](Cc3cccc(F)c3)C(=O)N[C@@H](C[C@@H]3CCNC3=O)C(=O)COc3c(F)c(F)c(C(C)O)c(F)c3F)cc12 (stereo partly shown) [compound 8]"
target_under_test = "human cathepsin L (hCTSL) (Homo sapiens, UniProt P07711)"
property = "hCTSL biochemical assay pIC50"
bound_type = "="
test_value = 7.34

[[record]]
compound = "COc1cccc2[nH]c(C(=O)N[C@@H](Cc3cccc(F)c3)C(=O)N[C@@H](CCn3cn[nH]c3=O)C(=O)COc3c(F)c(F)c(C(C)(C)O)c(F)c3F)cc12 [compound 13]"
target_under_test = "human cathepsin L (hCTSL) (Homo sapiens, UniProt P07711)"
property = "hCTSL biochemical assay pIC50"
bound_type = "="
test_value = 8.71

